The reported measurements were obtained from the nanobody polyreactivity screen of Harvey et al. (2022).

# TEST PROTOCOL: yeast display, Sf9 membrane polyspecificity reagent, FACS + sequencing; frameworks hold sequencing errors
REPORTED ENDPOINT: polyreactivity (PSR sort gate)

QVQLVESGGGLVQAGGSLRLSCAASGRIFTRYTMGWYRQAPGKESELVAAISRSGGSTYYADSVKGRFTISRDNEKNTVYLQMNSLKPEDTAVYYCAAKGPYTYGYGYWGQGTQVTVSS; high polyreactivity
QVQLVESGGGLVQAGGSLRLSCAASGRTYINNAMGWYRQAPGKERELVAAISRRGGSTYYADSVKGRFTISRDNAKNTVYLQMNSLKPEDTAVSYCAADAFRSQRPYTYDYWGQGTQVTVSS; high polyreactivity
QVQLVESGGGLVQAGGSLRLSCAASGRIFSVYAMGWYRQAPGKERELVAAITRVGSTNYADSVKGRFTISRDNAKNTVYLQMNSLKPEDTAVYYCAAVARTVPSYSYNYWGQGTQVTVSS; high polyreactivity

====

# TEST PROTOCOL: yeast display, Sf9 membrane polyspecificity reagent, FACS + sequencing; frameworks hold sequencing errors
REPORTED ENDPOINT: polyreactivity (PSR sort gate)

Worked set:
QVKLVESGGGLVQAGGSLRLSCAASGSTFWGYAMGWYRQEPGKERELVATITTGGSTNYADSVKGRFTISRDNAKNTVYLQMNSLKPEDTAVYYCAKEVDPGSITSYGAGAHFGFDYWGQGTQVTVSS; low polyreactivity
QVQLVESGGGLVQAGGSLRLTCAASGSIFYRNAMGLYRQAPGKEMELVADISWSGSSTYADSVKGLFTISRDNAKYTVYLHMNTLKPEDTAVYYCAAGGHYYSSPGYNYWGQGTQVTVSS; high polyreactivity
QVQRVESGGGLVQAGGSLRLSCAASGRTLARNAMGWYRQAPGKERELVASINGRTTRTYYADSVKGRFTISRDNAKNTVYLQMNSLKPEDTAVYYCAVKDRYSFRYDYWGQGTQVTVSS; high polyreactivity
QVQLVESGGGLVQAGGSLRLSCAASGSIFYSNAMGWYRQAPGKERELVAAIRRSGGSTYYADSVKGRFTISRDNAKNTVYLQMNSLKPEDTEVYYCAARYSGTYSFYLSVGSRGYNYWGQGTQVTVSS; high polyreactivity

API: the following record is the query input.
In: State its polyreactivity (PSR sort gate) for this sequence: QVRLVESGGGLVQAGGSLRLSCAASGRTFTHNVMGWYRQAPGKERELVAGISSTGGSTYYADSVKVRFTISRDNAKNTVYLQMNSRKPEDPAVYYCNADYASYYRYSRPLEMNYWGQGTQVTVSS
Out: low polyreactivity

====

# TEST PROTOCOL: yeast display, Sf9 membrane polyspecificity reagent, FACS + sequencing; frameworks hold sequencing errors
REPORTED ENDPOINT: polyreactivity (PSR sort gate)

Below are worked cases with known answers.
HVQLVESGGGLVQAGGSLRLSCAASGSIFVVYAMGWYRQAPGKERELVASIRTGGSTNYADSVKGRYTISRDNAKNTVYLQMNSLKPEDTAVYYCAAASWNSNRHYYVARYYYWGQGTQVTVSS; high polyreactivity
QVQLVESGGGLVQAGGSLRLSCAASGRIFYPYAMGWYIQAPGKERELVADISIGGSTNYADSVKGRFTISRDNAKNTVYLQMNSLKPEDTAVYYCNAGGGFYGSTVEHDYWGQGTQVTVSS; low polyreactivity
QVQLVESGGGLDQAGGSLRLSCAASGFISPWYAMGWYRPAPGKERELDAAIDWSGGSTYYADSVKGRFTISRDNAKNTVYIQMKSLKPEDTAVYYCAARYYTAAVRAGRVRMYSWGQGTQVTVSS; high polyreactivity
QVQLVESGGGLVQAGGSLRLSCAASGITFYRNAMGWYRQATGKERELVAAITSGTSTYYADSVKGRFTISRDNAKNTVYLQMNSLKPEDTAVYYCAKRTPPGYYGFDYWGQGTQVTVSS; low polyreactivity
QVQLVESGGGLVQAGGSLRLSCAASGFTFASNCMGWYRQAPGKERELVAVIDWSDDSTYYADSVKGRFTISRDNAKNTVYLQMNSLKPEDTAVYYCKADVWWGGYDYWGQGTQVNVSS; low polyreactivity

In: Consider the sequence QVQLVESGGGLVQAGGSLRLSCAASGSIFIPYAMGWYRQAPGKERELVAAISGSGGSTYYADSVKGRFTISRDNAKNTVYLQMNSLKPEDTAVYYCNAVYRRSKYYFSQGYDYWGQGTQVTVSS and give its recorded polyreactivity (PSR sort gate).
Out: high polyreactivity

In: Give the measured polyreactivity (PSR sort gate) for QVKLVESGGGLVQAGGSLRLSCAASGLIFIGYAMGWYRPAPGKEMELVASIRGVGSTNYADSVKGRFTISRDNAKNTVYLQMNSLKPEDTAVYYCPNSVDRALYTQTRGDYDYWGQGTQVTVSS
Out: low polyreactivity

In: State its polyreactivity (PSR sort gate): QVQLVESGGDLVQAGGSLRLSCAASGSIFYINAMGWYRQAPGKERELVASISYSGTSTYYADSVKGRFTISRDNAKNTVYLQMNSLKPEDTAVYYCNSEDTPGAGDGYWGQGTQVTVSS
Out: low polyreactivity

In: Fill in reported polyreactivity (PSR sort gate) for this entry: QVQLVESGGGLVQAGGSLRLSCAASGSTFHLYAMGWYRQAPGKEREFVAAIRGRGGNTYADSVKGRFTISRDNAKNTVYLQMHSLKPEDTAVYYCAAPLLRDLRSPYSYNYWGQGTQVTVSS
Out: low polyreactivity

In: For the sequence QVQLVESGGGLGQAGGSLRLSCAASGLIFVRNDMGWYRQAPGKERELVADISDGSTYADSVKGRFTISRDNAKNTVYLQMNSLKPEDTAVYYCNKDNHDVELPVEFEYWGQGTHVTVSS , give its reported polyreactivity (PSR sort gate).
Out: high polyreactivity

In: Fill in polyreactivity (PSR sort gate) for record QVQLVESGGGLVQAGGSLRLSCAASGSIFGSYAMGWYRQAPGKERELVAVITSASTNYADSVKGRFTISRDNAKNTVYLQMNSLKPEDTAVYYCNAALSHDFWNYRLGYWGQGTQVTVSS
Out: low polyreactivity
